// data source = ChEMBL document CHEMBL4190379

Listed here are compounds together with their documented Ki.
# target.or.test.system: Bromodomain-containing protein 4 (Homo sapiens, UniProt O60885)
# experimental.protocol: Binding affinity to His-tagged BRD4 bromodomain 1 to 2 (K57 to K550 amino acids) (unknown origin) using Alexa647-labeled BET-inhibitor as fluorescent probe by bromodomain TR-FRET binding assay
# Assay type: single protein
// units = nM; emit number, no label

Sample answers from the record:
>>> data_value("CCS(=O)(=O)Nc1cnc2c(c1)-c1c[nH]c(=O)c3c1c(cn3C)CN2c1ccc(F)cc1F")
4.4
>>> data_value("Cn1cc2c3c(c[nH]c(=O)c31)CN(CC1CC1)c1ccccc1-2")
43

# context switch: different compound, same Ki
Sure, the documented Ki for `COC(=O)N1Cc2cn(C)c3c(=O)[nH]cc(c23)-c2cc(CS(C)(=O)=O)ccc21` is 17
